Provide the recorded melting point for the entries that follow.

1) Cc1coc(C(=O)c2ccc(F)c(F)c2Nc2ccc(I)cc2F)n1    127 °C
2) Cc1cccc(-c2nc3cccnn3c2-c2ccnc(N)c2)c1    188 to 189 °C
3) CCOC(=O)NC(=N)NCCSCc1[nH]cnc1C    196 to 197 °C
4) S=C=NC1(Br)C=Cc2nccnc2C1 (stereo not given)    157 to 158 °C

Please state melting point for every compound in the list that follows.
1. CCc1ccc(C(=O)c2c(N)sc3c2CCN(C(=O)OCc2ccccc2)C3)cc1
2. Cc1nc(-n2ccn(Cc3ccc(C(F)(F)F)cc3)c2=O)sc1C(=O)NCc1cccnc1
3. COC(=O)C1(NC(=O)Cc2cc(-c3ccc(Cl)cc3)ccc2Cl)CCCCC1
4. CC(C)(C)c1cc(C#N)c(O)cn1
5. Cc1nn(-c2c(Cl)cc(C(F)(F)F)cc2Cl)c(N)c1I
6. O=C(O)c1cc(NC(=O)C(CS)Cc2ccccc2)c[nH]1 (stereo not given)

Ans:
1: 121 to 123 °C; 2: 163 to 164 °C; 3: 124 °C; 4: 185 to 195 °C; 5: 116 to 118 °C; 6: 169 to 172 °C
